meta.source: patent US20240316059A1

pIC50: recorded values
Test system: MM.1S cells
Experiment: In vitro cytotoxic potency in MM.1S cell viability assay (CellTiter-Glo)
Assay type: cell-based, human
Settings: Homo sapiens, MM1.S, 72 h, read-out: MM.1S IC50
Protocol: Methods: MM.1S Cells were cultivated in RPMI medium 1640 (IX) supplemented with 10 μg/μL penicillin/streptomycin, 10% heat inactivated FBS, 0.1 mM Sodium Pyruvate, 1×MEM NEAA (ThermoFisher) and 1 mM HEPES. Cells were grown to reach log phase before being exposed to the test compounds. […] Test compounds were dissolved in 100% DMSO and added to a 384 assay plate. […] The plate was then allowed to stabilize for 20 minutes before recording the luminescence (Em filter 700 nm) in an Envision plate reader.
pIC50: −log10 of the molar value.

SMILES_DATA: CCOC(=O)[C@@H](CC(C)C)NC(=O)[C@H](N)CCc1nc2cc(N(CCCl)CCCl)ccc2n1C
pIC50: 5.77

SMILES_DATA: CC(C)C[C@H](NC(=O)[C@@H](N)CCc1nc2cc(N(CCCl)CCCl)ccc2n1C)C(=O)OCCOC(C)C
pIC50: 7.73

SMILES_DATA: CCOC(=O)[C@H](Cc1ccc(F)cc1)NC(=O)[C@H](Cc1nc2cc(N(CCCl)CCCl)ccc2n1C)NC(C)=O
pIC50: 7.24

SMILES_DATA: CC(C)C[C@H](NC(=O)[C@@H](N)CCc1nc2cc(N(CCCl)CCCl)ccc2n1C)C(=O)N(C)C
pIC50: 7.40

SMILES_DATA: COC(=O)[C@H](CC(C)C)NC(=O)[C@@H](N)CCc1nc2cc(N(CCCl)CCCl)ccc2n1C
pIC50: 8.09

SMILES_DATA: Cn1c(C[C@H](N)C(=O)O)nc2cc(N(CCCl)CCCl)ccc21
pIC50: 4.40

SMILES_DATA: CNC(=O)[C@H](CC(C)C)NC(=O)[C@@H](N)CCc1nc2cc(N(CCCl)CCCl)ccc2n1C
pIC50: 6.74

----------
test: In vitro cytotoxicity, BJ fibroblasts (normal cells); format: cell-based; conditions: human, CellTiter-Glo 2.0
IC50 at 72 h: recorded values

COMPOUND: Cn1c(CCCC(=O)O)nc2cc(N(CCCl)CCCl)ccc21 [Bendamustine, bendamustine, reference compound]
IC50 at 72 h: > 599000 nM
--
COMPOUND: CC(C)C[C@H](NC(=O)[C@@H](N)CCc1nc2cc(N(CCCl)CCCl)ccc2n1C)C(=O)N(C)C
IC50 at 72 h: > 2000 nM
--
COMPOUND: CCOC(=O)[C@H](Cc1ccc(F)cc1)NC(=O)[C@H](CCc1nc2cc(N(CCCl)CCCl)ccc2n1C)NC(C)=O
IC50 at 72 h: > 2000 nM
--
COMPOUND: CCOC(=O)[C@H](CC(C)C)NC(=O)[C@@H](N)CCc1nc2cc(N(CCCl)CCCl)ccc2n1-c1ccccc1
IC50 at 72 h: > 2000 nM
--
COMPOUND: CCOC(=O)[C@H](CC(C)C)NC(=O)[C@@H](N)CCc1nc2cc(N(CCCl)CCCl)ccc2n1C
IC50 at 72 h: 1070 nM
--
COMPOUND: N[C@@H](Cc1ccc(N(CCCl)CCCl)cc1)C(=O)O [Melphalan, melphalan, reference compound]
IC50 at 72 h: 104000 nM
